Origin of values: ChEMBL document CHEMBL1212913

assayed target: Glutamate receptor 1 (Rattus norvegicus, UniProt P19490)
Sequence (P19490 whole entry): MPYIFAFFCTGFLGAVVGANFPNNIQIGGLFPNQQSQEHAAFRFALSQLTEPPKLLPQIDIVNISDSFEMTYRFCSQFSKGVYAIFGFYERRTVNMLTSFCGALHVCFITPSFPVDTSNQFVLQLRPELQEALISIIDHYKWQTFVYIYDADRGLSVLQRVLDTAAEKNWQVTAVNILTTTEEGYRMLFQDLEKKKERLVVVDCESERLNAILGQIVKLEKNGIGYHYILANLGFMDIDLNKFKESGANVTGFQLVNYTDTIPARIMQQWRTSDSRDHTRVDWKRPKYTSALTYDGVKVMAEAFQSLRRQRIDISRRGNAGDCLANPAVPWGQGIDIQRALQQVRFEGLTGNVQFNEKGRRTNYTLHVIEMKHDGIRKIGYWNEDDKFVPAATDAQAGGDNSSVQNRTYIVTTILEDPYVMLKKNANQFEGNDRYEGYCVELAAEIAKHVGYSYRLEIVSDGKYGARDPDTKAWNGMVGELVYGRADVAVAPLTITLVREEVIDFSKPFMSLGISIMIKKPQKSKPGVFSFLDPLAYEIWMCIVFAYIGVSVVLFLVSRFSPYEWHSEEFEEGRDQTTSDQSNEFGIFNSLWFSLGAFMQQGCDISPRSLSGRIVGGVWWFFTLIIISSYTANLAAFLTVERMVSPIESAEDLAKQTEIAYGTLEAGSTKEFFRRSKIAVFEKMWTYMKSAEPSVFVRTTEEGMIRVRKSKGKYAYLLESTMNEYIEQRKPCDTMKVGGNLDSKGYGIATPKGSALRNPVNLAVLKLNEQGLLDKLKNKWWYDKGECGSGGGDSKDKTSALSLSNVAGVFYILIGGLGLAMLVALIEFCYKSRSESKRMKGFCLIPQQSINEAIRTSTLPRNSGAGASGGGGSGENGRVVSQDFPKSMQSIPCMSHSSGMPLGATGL
assay overview: Antagonist activity at rat recombinant GLuR1 expressed in Xenopus oocytes assessed as inhibition of glutamate-induced current by two-electrode voltage-clamp electrophysiology
pIC50: −log10 of the molar value.
Some molecules, each annotated with its measured pIC50.
measured property: pIC50

1. COc1ccc(-n2c(/C=C/c3cccnc3)nc3ccc(I)cc3c2=O)cc1 :: < 3.52
2. Cc1cccc(/C=C/c2nc3ccccc3c(=O)n2-c2ccc(C(=O)O)cc2)c1 :: < 3.52
3. O=C(O)c1ccc(/C=C/c2nc3ccccc3c(=O)n2-c2ccc(C(=O)O)cc2)cc1 :: < 3.52

---

assayed target: Ionotropic glutamate receptor NMDA 1/2D (Rattus norvegicus, UniProt P35439+Q62645)
Sequence (Q62645 whole entry, other chains not shown): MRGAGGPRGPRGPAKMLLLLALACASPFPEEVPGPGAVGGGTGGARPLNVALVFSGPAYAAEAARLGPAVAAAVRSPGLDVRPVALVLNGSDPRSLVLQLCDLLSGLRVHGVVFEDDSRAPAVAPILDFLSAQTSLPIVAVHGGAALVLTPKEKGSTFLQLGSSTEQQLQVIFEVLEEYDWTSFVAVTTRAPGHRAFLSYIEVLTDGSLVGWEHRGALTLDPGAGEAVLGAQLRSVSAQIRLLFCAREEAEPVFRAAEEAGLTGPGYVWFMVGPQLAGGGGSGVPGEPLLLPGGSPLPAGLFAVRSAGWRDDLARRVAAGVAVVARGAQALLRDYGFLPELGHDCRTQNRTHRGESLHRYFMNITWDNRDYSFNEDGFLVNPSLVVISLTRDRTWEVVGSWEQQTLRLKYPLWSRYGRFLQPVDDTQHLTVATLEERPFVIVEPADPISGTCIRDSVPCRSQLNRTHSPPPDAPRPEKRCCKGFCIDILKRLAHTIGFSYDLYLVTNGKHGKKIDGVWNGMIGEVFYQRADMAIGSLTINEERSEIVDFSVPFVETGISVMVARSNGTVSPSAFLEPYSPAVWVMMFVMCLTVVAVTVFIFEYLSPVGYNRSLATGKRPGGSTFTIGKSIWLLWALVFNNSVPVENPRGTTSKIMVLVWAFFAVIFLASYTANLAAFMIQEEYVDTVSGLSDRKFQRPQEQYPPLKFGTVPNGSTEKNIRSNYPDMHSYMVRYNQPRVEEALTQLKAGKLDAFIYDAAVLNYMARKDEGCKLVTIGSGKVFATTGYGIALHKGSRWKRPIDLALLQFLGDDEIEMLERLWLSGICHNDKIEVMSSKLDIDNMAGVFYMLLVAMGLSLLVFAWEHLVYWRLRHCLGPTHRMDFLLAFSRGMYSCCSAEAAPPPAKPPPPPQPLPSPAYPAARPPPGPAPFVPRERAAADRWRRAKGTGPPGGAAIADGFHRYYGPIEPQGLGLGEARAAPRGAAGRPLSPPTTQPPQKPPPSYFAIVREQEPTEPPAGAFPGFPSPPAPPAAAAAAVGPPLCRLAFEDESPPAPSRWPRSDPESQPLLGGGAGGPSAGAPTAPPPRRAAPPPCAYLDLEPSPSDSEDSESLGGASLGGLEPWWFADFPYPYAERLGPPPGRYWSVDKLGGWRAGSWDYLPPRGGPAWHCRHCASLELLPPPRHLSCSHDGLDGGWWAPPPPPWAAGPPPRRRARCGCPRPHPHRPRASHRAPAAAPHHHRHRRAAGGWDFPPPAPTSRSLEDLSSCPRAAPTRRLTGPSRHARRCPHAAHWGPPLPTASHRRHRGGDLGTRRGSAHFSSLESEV
assay overview: Antagonist activity at rat recombinant NR1-NR2D receptor expressed in Xenopus oocytes at holding potential of -40mV by two-electrode voltage-clamp electrophysiology
pIC50: −log10 of the molar value.
The threshold is inclusive: pIC50 of exactly 5 counts as t; values below receive f.

1. O=c1c2cc(I)ccc2nc(/C=C/c2cccnc2)n1-c1cccc([N+](=O)[O-])c1 :: f
2. Cc1nc2ccc(I)cc2c(=O)n1-c1ccc(C(=O)O)cc1 :: f
3. COc1ccc2nc(/C=C/c3ccc([N+](=O)[O-])cc3)n(-c3ccc(C(=O)O)cc3)c(=O)c2c1 :: t
4. O=c1c2cc(I)ccc2nc(/C=C/c2cccnc2)n1-c1ccccc1[N+](=O)[O-] :: t
5. N#Cc1ccc(/C=C/c2nc3ccccc3c(=O)n2-c2ccc(C(=O)O)cc2)cc1 :: f
6. CSc1ccc(/C=C/c2nc3ccccc3c(=O)n2-c2ccc(C(=O)O)cc2)cc1 :: f
7. O=C(O)c1ccc(-n2c(/C=C/c3ccc4ccccc4c3)nc3ccccc3c2=O)cc1 :: t
8. COc1ccc2nc(/C=C/c3cccc([N+](=O)[O-])c3)n(-c3ccc(C#N)cc3)c(=O)c2c1 :: f
9. COc1ccccc1/C=C/c1nc2ccccc2c(=O)n1-c1ccc(C(=O)O)cc1 :: f
10. COc1ccc2nc(/C=C/c3cccc([N+](=O)[O-])c3)n(-c3ccc(C(N)=O)cc3)c(=O)c2c1 :: f

---

assayed target: Ionotropic glutamate receptor NMDA 1/2D (Rattus norvegicus, UniProt P35439+Q62645)
assay overview: Antagonist activity at rat recombinant NR1-NR2D receptor expressed in Xenopus oocytes at holding potential of -40mV by two-electrode voltage-clamp electrophysiology
pIC50: −log10 of the molar value.
measured property: pIC50

1) O=c1c2cc(I)ccc2nc(/C=C/c2cccnc2)n1-c1ccc([N+](=O)[O-])cc1 :: 3.66
2) O=C(O)c1ccc(-n2c(/C=C/c3cccc([N+](=O)[O-])c3)nc3ccc(F)cc3c2=O)cc1 :: 5.15
3) COc1ccccc1-n1c(/C=C/c2cccnc2)nc2ccc(I)cc2c1=O :: 5.52

---

assayed target: Glutamate NMDA receptor; Grin1/Grin2b (Rattus norvegicus, UniProt P35439+Q00960)
Sequence (Q00960 whole entry, other chains not shown): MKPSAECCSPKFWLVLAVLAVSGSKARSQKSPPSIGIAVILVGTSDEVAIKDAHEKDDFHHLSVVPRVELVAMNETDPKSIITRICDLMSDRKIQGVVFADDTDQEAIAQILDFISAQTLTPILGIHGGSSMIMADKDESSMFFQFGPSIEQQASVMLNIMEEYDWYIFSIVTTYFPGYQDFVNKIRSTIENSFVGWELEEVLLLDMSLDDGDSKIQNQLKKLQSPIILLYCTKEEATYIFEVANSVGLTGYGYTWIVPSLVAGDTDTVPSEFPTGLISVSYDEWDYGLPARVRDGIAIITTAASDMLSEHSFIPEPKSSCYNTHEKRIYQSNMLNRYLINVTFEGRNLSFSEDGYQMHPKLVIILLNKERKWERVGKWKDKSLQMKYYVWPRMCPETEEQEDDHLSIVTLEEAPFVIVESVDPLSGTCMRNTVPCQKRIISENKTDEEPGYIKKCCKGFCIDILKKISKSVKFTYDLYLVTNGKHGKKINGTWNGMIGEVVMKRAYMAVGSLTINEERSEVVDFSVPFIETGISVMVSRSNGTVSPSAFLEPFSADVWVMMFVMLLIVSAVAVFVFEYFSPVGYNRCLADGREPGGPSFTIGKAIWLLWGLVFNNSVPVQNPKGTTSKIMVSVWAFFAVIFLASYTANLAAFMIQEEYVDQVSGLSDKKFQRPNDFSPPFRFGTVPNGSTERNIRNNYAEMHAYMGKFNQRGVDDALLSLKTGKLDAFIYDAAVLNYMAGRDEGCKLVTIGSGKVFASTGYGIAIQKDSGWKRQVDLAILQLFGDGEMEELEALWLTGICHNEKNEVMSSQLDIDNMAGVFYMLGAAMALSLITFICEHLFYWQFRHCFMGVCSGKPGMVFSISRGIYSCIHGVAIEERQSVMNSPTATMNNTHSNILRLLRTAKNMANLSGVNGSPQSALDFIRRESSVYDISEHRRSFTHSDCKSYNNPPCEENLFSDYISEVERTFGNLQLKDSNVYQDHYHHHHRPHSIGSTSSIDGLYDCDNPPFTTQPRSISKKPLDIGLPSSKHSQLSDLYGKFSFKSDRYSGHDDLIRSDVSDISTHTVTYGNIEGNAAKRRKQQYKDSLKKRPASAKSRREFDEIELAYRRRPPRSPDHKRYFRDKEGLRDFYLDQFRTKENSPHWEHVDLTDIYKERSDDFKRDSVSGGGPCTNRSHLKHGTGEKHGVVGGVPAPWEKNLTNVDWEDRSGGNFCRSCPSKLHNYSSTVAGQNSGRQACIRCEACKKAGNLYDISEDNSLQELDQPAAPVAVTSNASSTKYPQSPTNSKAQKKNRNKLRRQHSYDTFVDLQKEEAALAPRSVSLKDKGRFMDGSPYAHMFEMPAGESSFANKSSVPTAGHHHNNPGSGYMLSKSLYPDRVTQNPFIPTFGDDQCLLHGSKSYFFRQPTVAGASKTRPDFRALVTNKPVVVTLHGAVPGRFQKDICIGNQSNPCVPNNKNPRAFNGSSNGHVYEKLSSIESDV
assay overview: Antagonist activity at rat recombinant NR1-NR2B receptor expressed in Xenopus oocytes at holding potential of -40mV by two-electrode voltage-clamp electrophysiology
Format: functional, cell-based, Oocyte
condition set: read-out: IC50
pIC50: −log10 of the molar value.
compounds and their reported pIC50
measured property: pIC50

1) O=C(O)c1ccc(-n2c(/C=C/c3cccc([N+](=O)[O-])c3)nc3cccc(Cl)c3c2=O)cc1 :: 3.96
2) CSc1ccc(/C=C/c2nc3ccccc3c(=O)n2-c2ccc(C(=O)O)cc2)cc1 :: 4.10
